Origin of measurements: BigSolDB 2.1

TEST_CONTEXT: in acetone, 293.15 K

SMILES_STR | solubility (mole fraction)
Nc1ncnc2c1ncn2CCOCP(=O)(O)O | 0.00018

----------
TEST_CONTEXT: in methanol, 303.15 K

SMILES_STR | solubility (mole fraction)
Nc1ncnc2c1ncn2CCOCP(=O)(O)O | 0.000704

----------
TEST_CONTEXT: in isobutanol, 308.15 K
EXPERIMENTAL_READOUT: solubility (mole fraction)

SMILES_STR | MEAS_VALUE
Nc1ncnc2c1ncn2CCOCP(=O)(O)O | 0.000505
